Tested on: MDA-MB-435
experiment description: Antineoplastic activity against human MDA-MB-435 cells after 72 hrs by MTT assay
Type: functional, cell-based
experimental setup: MDA-MB-435, 72 h
Kindly supply the reported pIC50 values for the records listed here.
Give bare numbers, as −log10 of the molar value.

Example cases with answers are listed next.
| compound | pIC50 |
| --- | --- |
| COc1cc(C=O)cc2c1O[C@@H]1C3=C(OC[C@H]21)C(=O)c1ccccc1C3=O (racemic) | 4.97 |
| COc1ccc2c(c1)O[C@@H]1C3=C(OC[C@H]21)C(=O)c1ccccc1C3=O (racemic) | 4.94 |

# next compound below
pIC50 reported for this compound O=C1C2=C(C(=O)c3ccccc31)[C@H]1Oc3ccccc3[C@H]1CO2 (racemic) [PTEROCARPANQUINONE] : 5.64

* * *

Tested on: K562
experiment description: Antineoplastic activity against human K562 cells after 72 hrs by MTT assay
Assay type: functional, cell-based
experimental setup: K562, 72 h
recorded metric: IC50 (µM)
One number for each entry, in µM.

| compound | measured on | quantity unit | IC50 |
| --- | --- | --- | --- |
| COc1cccc2c1C(=O)c1c(O)c3c(c(O)c1C2=O)C[C@@](O)(C(=O)CO)C[C@@H]3O[C@H]1C[C@H](N)[C@H](O)[C@H](C)O1 [DOXORUBICIN] | K562 | µM | 1.67 |

Batch of 8 compounds: report IC50 for each.
1. Cc1ccc(S(=O)(=O)N2c3ccccc3[C@H]3COC4=C(C(=O)c5ccccc5C4=O)[C@H]32)cc1 (racemic)
2. Cc1ccc(S(=O)(=O)N2c3ccccc3[C@H]3CCc4ccccc4[C@H]32)cc1
3. COC(=O)c1ccc2c(c1)[C@H]1COC3=C(C(=O)c4ccccc4C3=O)[C@H]1O2 (racemic)
4. COc1c2c(c(OC)c3ccccc13)[C@@H]1[C@H](CO2)c2ccccc2N1S(=O)(=O)c1ccc(C)cc1 (racemic)
5. Cc1ccc(S(=O)(=O)N2c3ccccc3[C@H]3COc4ccccc4[C@H]32)cc1
6. COc1c2c(c(OC)c3ccccc13)[C@H]1Oc3ccccc3[C@H]1CO2 (racemic)
7. COc1ccc2c(c1)O[C@@H]1C3=C(OC[C@H]21)C(=O)c1ccccc1C3=O (racemic)
8. COc1cc(C=O)cc2c1O[C@@H]1C3=C(OC[C@H]21)C(=O)c1ccccc1C3=O (racemic)

[5.5, 1.9, 8, 46.7, 6.4, 13.5, 3.3, 13.5]

* * *

Kindly supply the reported pIC50 values for the records listed here.
System: MDA-MB-435
experiment description: Antineoplastic activity against human MDA-MB-435 cells after 72 hrs by MTT assay
Type: functional, cell-based
experimental setup: MDA-MB-435, 72 h
Answers are plain numbers, as −log10 of the molar value.

Example cases with answers are listed next.
| compound | measured on | pIC50 |
| --- | --- | --- |
| Cc1ccc(S(=O)(=O)N2c3ccccc3[C@H]3COc4ccccc4[C@H]32)cc1 | MDA-MB-435 | 5.30 |
| Cc1ccc(S(=O)(=O)N2c3ccccc3[C@H]3CCc4ccccc4[C@H]32)cc1 | MDA-MB-435 | 6.30 |
| Cc1ccc(S(=O)(=O)N2c3ccccc3[C@H]3COC4=C(C(=O)c5ccccc5C4=O)[C@H]32)cc1 (racemic) | MDA-MB-435 | 6.40 |
| O=C1C2=C(OCC=C2)C(=O)c2ccccc21 | MDA-MB-435 | 5.74 |
| COc1c2c(c(OC)c3ccccc13)[C@H]1Oc3ccccc3[C@H]1CO2 (racemic) | MDA-MB-435 | 4.51 |

# next compound below
O=C1C2=C(C(=O)c3ccccc31)[C@H]1Oc3ccc([N+](=O)[O-])cc3[C@H]1CO2 (racemic) on MDA-MB-435 gives pIC50 = 4.76

* * *

Kindly supply the reported pIC50 values for the records listed here.
Test system: HL-60
experiment description: Antineoplastic activity against human HL60 cells after 72 hrs by MTT assay
Assay type: functional, cell-based
experimental setup: HL-60, 72 h
Answers are plain numbers, as −log10 of the molar value.

| compound | measured on | assay result |
| --- | --- | --- |
| O=C1C2=C(C(=O)c3ccccc31)[C@H]1Oc3ccc([N+](=O)[O-])cc3[C@H]1CO2 (racemic) | HL-60 | 5.20 |
| O=C1C2=C(OCC=C2)C(=O)c2ccccc21 | HL-60 | 6.30 |
| Cc1ccc(S(=O)(=O)N2c3ccccc3[C@H]3COC4=C(C(=O)c5ccccc5C4=O)[C@H]32)cc1 (racemic) | HL-60 | 5.13 |

pIC50 reported for this compound COc1ccc2c(c1)O[C@@H]1C3=C(OC[C@H]21)C(=O)c1ccccc1C3=O (racemic) : 5.46

* * *

Kindly supply the reported IC50 values for the records listed here.
System: HL-60
experiment description: Antineoplastic activity against human HL60 cells after 72 hrs by MTT assay
Format: functional, cell-based
experimental setup: HL-60, 72 h

Example cases with answers are listed next.
| compound | IC50 |
| --- | --- |
| c1ccc2c(c1)O[C@@H]1c3ccccc3OC[C@H]21 | > 112 µM |
| c1ccc2c(c1)CC[C@@H]1c3ccccc3O[C@H]21 | > 112 µM |

# next compound below
IC50 reported for this compound COc1c2c(c(OC)c3ccccc13)[C@@H]1[C@H](CO2)c2ccccc2N1S(=O)(=O)c1ccc(C)cc1 (racemic) : > 51 µM
